Tested on: SK-MEL-5
Test Protocol: NCI tumour cell line growth inhibition, 48 h
The source made the active and inactive calls. Cut-off read from the data, not from the text of the source: active = GI50 up to about 1.1 µM and inactive = higher.
Result category, one only: 1.0 (active), 0.0 (inactive)

# Molecule, Class
rows = [
    ("CC1=C(C(=O)NCc2ccccc2)C(c2ccc(Cl)c(Cl)c2)C(C(=O)NCc2ccccc2)=C(C)N1", 0.0),
    ("C/C(=N\\NC(=O)c1ccncc1)c1sc(-n2nc(-c3ccccc3)cc2-c2ccccc2)nc1C", 0.0),
    ("COc1ccc(Nc2nc3ccccc3nc2C(=O)O)cc1OC", 0.0),
    ("COc1cc(C2C(C(=O)Nc3ccccc3C)=C(C)NC(C)=C2C(=O)Nc2ccccc2C)ccc1O", 0.0),
    ("Cn1cc(C2(C)CC(C)(C)c3c2n(C)c2ccccc32)c2ccccc21 (stereo not given)", 0.0),
    ("CCOP(=O)(CC1OC(CO)C(O)C1O)OCC (stereo not given)", 0.0),
]

Dear all, I need the recorded test outcome for CC1(O)CC2C(CC1SC1CC3C(CC1(C)O)C3(C)C)C2(C)C (stereo not given) , thank you.
0.0

Dear all, I need the recorded test outcome for S=C(N/N=C/c1ccccn1)N1CCCCCC1 , thank you.
1.0

Dear all, I need the recorded test outcome for O=C(O)CCCCCCC[C@H]1S[C@H]1CCCCCCO , thank you.
0.0

Dear all, I need the recorded test outcome for NC(=O)Cn1c(=O)oc2cc(C(=O)CN3CCOCC3)ccc21 , thank you.
0.0
